- Assay Name: Ertugliflozin-simvastatin drug-drug interaction study, plasma pharmacokinetics
- Assay Conditions: both, human, in vivo, 15 mg
Measured Parameter: half-life (h)
Entry rule: numbers only, all in h.

The recorded half-life for entry CCOc1ccc(Cc2cc([C@]34OC[C@](CO)(O3)[C@@H](O)[C@H](O)[C@H]4O)ccc2Cl)cc1 [Ertugliflozin] equals 12.3

----------
- Assay Name: Ertugliflozin-sitagliptin drug-drug interaction study, plasma pharmacokinetics
- Format: in vivo, human
- Assay Conditions: human, plasma, oral, 15 mg
Measured Parameter: Tmax (h)
Number in h, nothing else.

The reported Tmax of the molecule `CCOc1ccc(Cc2cc([C@]34OC[C@](CO)(O3)[C@@H](O)[C@H](O)[C@H]4O)ccc2Cl)cc1` was 1

Origin of measurements: paper PMC6586154
